# Experimental Target: human motilin receptor (Homo sapiens, UniProt O43193)
# Sequence (O43193 whole entry): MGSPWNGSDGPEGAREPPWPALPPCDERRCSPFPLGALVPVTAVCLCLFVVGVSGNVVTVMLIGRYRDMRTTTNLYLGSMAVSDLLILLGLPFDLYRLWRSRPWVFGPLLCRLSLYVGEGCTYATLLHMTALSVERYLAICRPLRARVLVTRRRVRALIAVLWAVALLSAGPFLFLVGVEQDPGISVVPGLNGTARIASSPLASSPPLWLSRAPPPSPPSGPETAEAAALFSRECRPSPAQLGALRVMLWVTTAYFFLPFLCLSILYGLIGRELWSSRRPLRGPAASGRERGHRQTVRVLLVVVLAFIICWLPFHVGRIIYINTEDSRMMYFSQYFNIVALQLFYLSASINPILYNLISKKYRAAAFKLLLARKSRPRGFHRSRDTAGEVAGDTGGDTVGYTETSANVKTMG
# Protocol Notes: Competitive radioligand binding assay (Method B1)
# Design: purchased PerkinElmer 6110544; host or cells: CHO cells, stably transfected (membranes)
# Details: Radioligand competitive binding assay, Method B1; values reported as ranges; read-out: Ki (binding activity)
Recorded Ki values for a group of molecules are listed next.

// known answers, use as guide
**Query** Recorded Ki for CCCC1NC(=O)C(C(C)C)NC(=O)C(Cc2ccc(CN)cc2)NCCOc2ccccc2CCCNC1=O (centres unmarked) , please?
**Result** 100 to 1000 nM

**Query** // next record COc1ccc(CC2NCCOc3ccccc3CCCNC(=O)C(CN)NC(=O)C(C(C)C)NC2=O)cc1 (centres unmarked)
**Result** 100 to 1000 nM

**Query** Also CC(C)C1NC(=O)C(Cc2ccc(O)cc2)NCCOc2ccccc2C=CCNC(=O)C(CO)NC1=O (centres unmarked) ?
**Result** 100 to 1000 nM

Further cases:
**Query** Quick check: Ki of CCCC1NC(=O)C(C(C)C)NC(=O)C(Cc2ccc(O)cc2)NCCOc2ccccc2CCNC1=O (centres unmarked) ?
**Result** 100 to 1000 nM

**Query** Note, next up: "CC(C)C[C@@H]1NC(=O)[C@@H](C(C)C)NC(=O)[C@@H](Cc2ccc(F)cc2)NCCOc2ccccc2CCCNC1=O"
**Result** 1 to 100 nM

**Query** Also check CCCC1NC(=O)C(C2CC2)NC(=O)C(Cc2ccc(O)cc2)NCCOc2ccccc2CCCNC1=O (centres unmarked)
**Result** 100 to 1000 nM

**Query** Now consider CC(C)C1NC(=O)C(Cc2ccc(Cl)cc2)NCCOc2cccnc2CCCNC(=O)C(CC2CC2)NC1=O (centres unmarked) and answer again.
**Result** 100 to 1000 nM

**Query** What do you get for "CCC[C@@H]1NC(=O)[C@@H](C(C)C)NC(=O)[C@@H](Cc2ccc(C)cc2)NCCOc2ccccc2CCCNC1=O" ?
**Result** 100 to 1000 nM

* * *

# Experimental Target: human motilin receptor (Homo sapiens)
# Protocol Notes: Competitive radioligand binding assay (Method B1)
# Parameters: purchased PerkinElmer 6110544; host or cells: CHO cells, stably transfected (membranes)
# Details: Radioligand competitive binding assay, Method B1; values reported as ranges; read-out: Ki (binding activity)
pKi: −log10 of the molar value.
Documented pKi across a set of molecules

Example entries begin here.
**Query** Given the entry COc1ccc(CC2NC(=O)C(C(C)C)NC(=O)C(Cc3ccc(O)cc3)NCCOc3ccccc3C=CCNC2=O)cc1 (stereo not shown) , report its measured pKi.
**Result** 5.00 to 6.00

**Query** Param item: CC(C)CC1NC(=O)C(C(C)C)NC(=O)C(Cc2cccs2)NCCOc2cccnc2CCCNC1=O (stereo not shown)
**Result** 6.00 to 7.00

**Query** Can you handle "CC(C)[C@H]1NC(=O)[C@@H](Cc2cccc(Cl)c2)NCCOc2cccnc2CCCNC(=O)[C@H](CN)NC1=O" next?
**Result** 7.00 to 9.00

**Query** Field entry: CCCC1NC(=O)C(C(C)C)NC(=O)CC(Cc2cccc(Cl)c2)NCCOc2ccccc2CCCNC1=O (stereo not shown)
**Result** 6.00 to 7.00

**Query** Then this molecule: "CCC[C@@H]1NC(=O)[C@@H](C(C)C)NC(=O)[C@@H](Cc2ccc(F)cc2)NCCOc2ccccc2CCCNC1=O"
**Result** 7.00 to 9.00

**Query** Can you handle CCCC1NC(=O)C(C(C)CC)NC(=O)C(Cc2ccc(O)cc2)NCCOc2ccccc2CCCNC1=O (stereo not shown) [Compound 160] next?
**Result** 6.00 to 7.00

---
**Query** Return reported pKi; argument: CC(C)C1NC(=O)C(Cc2ccc(O)cc2)NCCOc2ccccc2C=CCNC(=O)C(c2ccccc2)NC1=O (stereo not shown)
**Result** 6.00 to 7.00
